Test system: CCRF-CEM
Assay: NCI tumour cell line growth inhibition, 48 h
The source made the active and inactive calls. No stated cut-off is given here; in the data, active = GI50 up to about 1.1 µM and inactive = higher.
Choose one outcome from this list and give only that: active, inactive

What did the test return for Sc1ncnc2nc[nH]c12 [MERCAPTOPURINE ANHYDROUS] ?
inactive

====

System: RXF 393
Assay: NCI tumour cell line growth inhibition, 48 h
Active and inactive are the calls of the source. Rule as the data show it: active = GI50 up to about 1.1 µM and inactive = higher.
quantity_name: GI50

Worked examples, 3 compounds total:
| compound | test_value |
| --- | --- |
| COc1ccc2[nH]c3c(c2c1)[C@H](c1ccccc1)C[C@@H]1C(=O)N(c2ccccc2)C(=O)[C@H]31 | 16 µM (inactive) |
| Nc1ccc(-c2nc3cc(F)ccc3s2)cc1Br | 25.5 µM (inactive) |
| COc1ccc(C2C(Cl)C(=O)N2NC(=O)c2ccccc2O)cc1OC (centres undefined) | > 100 µM (inactive) |

Could you report GI50 for every entry in the following list?
1. NS(=O)(=O)c1c(O)c2ccccc2oc1=O
2. CC1(C)CC(=O)C(=[N+]=[N-])C(=O)C1
3. NCCP(=O)(O)O
4. COC(=O)/C(=N\NC(N)=O)C(C(=O)C(=O)Nc1ccccc1OC)c1nc2ccc([N+](=O)[O-])cc2nc1O (centres undefined)

1: > 100 µM (inactive); 2: > 100 µM (inactive); 3: > 100 µM (inactive); 4: > 100 µM (inactive)

Could you report GI50 for every entry in the following list?
1. CN1CSC(=S)N(c2cccc(C(F)(F)F)c2)C1
2. COc1ccccc1C1ON=C(c2ccc([N+](=O)[O-])cc2)N1C12CC3CC(CC(C3)C1)C2 (centres undefined)
3. O=C(NCCN1CCCC1)c1cn2c(ccc3sc4ccccc4c(=O)c32)n1
4. CCOC(=O)c1ncn2c1[nH]c(=S)c1ccccc12

1: 37.2 µM (inactive); 2: 12.1 µM (inactive); 3: 10.8 µM (inactive); 4: > 100 µM (inactive)

Could you report GI50 for every entry in the following list?
1. S=C(Nc1ccc(Cl)cc1)SC1CCCCC1
2. CC12CCC3=C(CSC4=C3CSc3ccccc34)C1=CCCC2=O (centres undefined)
3. O=C(c1ccco1)N(Cc1cccnc1)C(=S)N(Cc1cccnc1)C(=O)c1ccco1

1. 25.1 µM (inactive)
2. 40.2 µM (inactive)
3. 28.7 µM (inactive)

Could you report GI50 for every entry in the following list?
1. NC(=O)c1ccc(Cl)c([N+](=O)[O-])c1
2. COC(=O)C(Cc1nc2ccccc2nc1O)C(NO)C(=O)Nc1c(Cl)cc([N+](=O)[O-])cc1Cl (centres undefined)
3. CCOC(=O)c1c(CN2CCCC2)n(-c2ccccc2)c2cc(Br)c(O)cc12

> 100 µM (inactive)
16.5 µM (inactive)
12.4 µM (inactive)

Could you report GI50 for every entry in the following list?
1. CC(C)OC1OC(CO)C(O)CC1n1cc(F)c(=O)[nH]c1=O (centres undefined)
2. CCOc1ccccc1NC(=O)C(=O)CC(=O)c1c(C)[n+]([O-])c2ccccc2[n+]1[O-]

["47.5 µM (inactive)", "> 100 µM (inactive)"]

====

Answer each item with its documented GI50.
System: 786-0
Test: NCI tumour cell line growth inhibition, 48 h
The source made the active and inactive calls. Cut-off read from the data, not from the text of the source: active = GI50 up to about 1.1 µM and inactive = higher.

| molecule | test_value |
| --- | --- |
| O=C(c1ccco1)N(Cc1cccnc1)C(=S)N(Cc1cccnc1)C(=O)c1ccco1 | 3.06 µM (inactive) |
| COC(=O)c1ccc(OCc2ccc3nc(-c4ccccc4)c(Cl)nc3c2)cc1 | 21 µM (inactive) |
| CC(=N)OC1CC2CCC1(C)C2(C)C (centres undefined) | > 100 µM (inactive) |
| O=C(CCC(=O)C1Cc2ccccc2C1=O)Nc1cccc(C(F)(F)F)c1 (centres undefined) | > 100 µM (inactive) |

Could you report GI50 for every entry in the following list?
1. CCOC(=O)CCC(NC(=O)c1ccc(/N=C/c2nc3cc(C(F)(F)F)ccc3nc2-c2ccccc2)cc1)C(=O)OCC (centres undefined)
2. NCCNc1ncnc2ccc(Cl)cc12
3. CN(C)c1ccc(/C=C/C=C\c2cc(/C=C/C=C/c3ccc(N(C)C)cc3)[s+]c3ccccc23)cc1.[O-][Cl+3]([O-])([O-])[O-]
4. CCOC(=O)c1c(-c2ccccc2)[nH]c2ccc(Cl)cc2c1=O

7.38 µM (inactive)
> 100 µM (inactive)
90.6 µM (inactive)
38.7 µM (inactive)

Note down GI50 recorded for COc1ccc(-c2cc(-c3ccc(C)cc3)n(C3OC(COC(C)=O)C(OC(C)=O)C(OC(C)=O)C3OC(C)=O)c(=S)c2C#N)cc1 (centres undefined)
> 100 µM (inactive)

The measured values listed here are drawn from ChEMBL document CHEMBL1201862.
